assay: label from the status in PepcDB records
measurement-type: protein production

INSERT INTO assay_data (sequence_input, measurement_type, result) VALUES
  ('MGKIFCIVQARMGSERLQGKVIKPILKKPMVIYTLDRLKKSKYIDKIVLATSSMERETPLVESCEEYGYDVFKGSEANVLKRYEQAAEKYGANIEDAVIRVTGDCPLIDPIIVDNVVTKFLSSDYDYVRLDVPNTFVRGFDVEIFSMKALKTVNSLINGGKIPKEEADMYKEHVTLYMYKHPNEFKVGYVKGDEFYSKDYRLCVDTKEDFELVKNIYEHFNDEFVSSKNVINYLDRNSEIAQINNDIKQKEVLEHHHHHH', 'protein production', 'not failed'),
  ('MTTLTRQDLNFGQVVADVLSEFLEVAVHLILYVREVYPVGIFQKRKKYNVPVQMSCHPELNQYIQDTLHCVKPLLEKNDVEKVVVVILDKEHRPVEKFVFEITQPPLLSINSDSLLSHVEQLLRAFILKISVCDAVLDHNPPGCTFTVLVHTREAATRNMEKIQVIKDFPWILADEQDVHMHDPRLIPLKTMTSDILKMQLYVEERAHKNS', 'protein production', 'not failed'),
  ('MNFISDQVKKLSSSTPEEPDHNKPVEGTETATRPATNAELMASAKVVAEAAQAAARNESDKLDKGKVAGASADILDAAEKYGKFDEKSSTGQYLDKAEKYLNDYESSHSTGAGGPPPPTSQAEPASQPEPAAKKDDEESGGGLGGYAKMAQGFLK', 'protein production', 'failed'),
  ('MSLKLIGMLDSPYVRRVAISLKSLGLPFEHHSLSVFSTFEQFKAINPVVKAPTLVCEGGEVLMDSSLIIDYLETLAGPQRSLMPTALPQRLRELRLVGLALAACEKSVQIVYERNLRPAEKQHGPWLERVGGQLQAAYGELEQELQKQPLPRDGSLGQAGISLAVAWSFSQMMVADQFNPGQFPAVRGFAEYAEQLPVFLATPATEGHHHHHH', 'protein production', 'not failed'),
  ('MNSESKLSQKANSSFTMDDFAKALENHDYQFQKGQVVYGKVFQLDPDGAYVDIGGKSSAYIPRDEASLRAVNDLAAVLPLHEELEFIIIREQDAEGQVTLSRRQLEINHIWEKLAQMKENSQPVDVKVTGVNKGGVTVDVQSLRGFIPRSHLTERDNLEALKGHTLTAGFLEVDRNNKKLVLSQRLVTRSSNFNQLEIGQLVEGKITGIKPFGVFVDLNGLSALLHIKQVSQKFIESLEKVFQPGQTIKAIVIDLDQGKGRVAISTRALENFPGEVLENFEEVMASAEARANRAANKMNEGGVGV', 'protein production', 'failed'),
  ('MTGPAENSTNFPGHRLKSPLPLRLATLSLLILYPVAWFAPLMRAGLLPIFGLSEISVITGLQSLWASDVALALIVTAFALFAPYLKTIGTALIQWNLLDPRAQPALHILGKLAMADIFLIALYITLAKGISYATIEAAWGLYLFTACILASIALGLLTERQIRKATR', 'protein production', 'failed'),
  ('MPSSSASLIPSLRQASRQMVRELGFMQATLAATDYPPSAVHALLEIGQGNALTAGDLVTLLGLEKSSVSRLVRKLVDAGEISEQAHDQDARSKKLQLSARGRQTLAGIDRFAQAQVAAALAHLSPAQQRSACAGIADYARALRAVRLGDVPEPPERCSIARGYRPGVIGRIAEMHARYYADLAGFGQPFESLVARDMAELMGRLHNPRNEVWVALQGERIVGSIAIDGEGEGGEALLRCFILDEAARGQGLGRRLLAEALGFCDQWGFAATRLWTFKGLDAARALYEEQGFVLVQEQEGEQWGAPVTEQCFVRARVAQRDTIR', 'protein production', 'failed'),
  ('SIAILVIMHGESTASSMVNVANTLLDCNHAVAINMGLEDRVQDILVQAVEIANKIDKGKGILILTDMGSILTFAKVIRDATGKEVKAIDMVSTPIVIEATRKALTPEMTLEKLYFNIIESIKKHYGDMEVTYAEKDNGGRY', 'protein production', 'not failed'),
  ('MIKETVFKSFDTPSALEQQLASKIASQLQEAVDARGKASLVVSGGSTPLKLFQLLSMKSIDWSDVYITLADERWVEADADASNERLVREHLLQNRASNAKFRGLKNMFSTAEAGADMAAESLSNFPRPFDVVVLGMGNDGHTCSWFPCSAELENALTTQALCVATNPTTAPHGRITLSKSAILNSRQIYLHLVGEQKLSVYRQALESDDVHAMPIRAVLAQRKTPVDVFWSA', 'protein production', 'not failed'),
  ('MMKAEELNKGFVNEIIEAGTPVPGEKEVASLKSCYQCGTCTGSCPSGRRTAYRTRKVIRQALLGIDSVLDSDDIWKCTTCYTCYERCPRDVKVTEIIKTIRNLAAKKGNMATPHKMTAVYVLKAGHAVPANDDTAKLRKSIGLAEKAPIAQFSQKDMDEIRTIAKNLKFDELIGFDWKTMGLKQ', 'protein production', 'failed'),
  ('NAGFECGTEYLNFDEQPATMLDANLLSVEEGYPVTIIERLRTADGEPVVYCLDKIAKKELTCTEYQMSNGSILSAIKEQSNHNICYADTEIEAVNYEPRISEVLNASPHEGLILLKITHYNELDEPILYSLNYMKNSLVQ', 'protein production', 'failed'),
  ('MGFTDSIREHVREHRTGMVHDLMFAVVWVAIVNFLFSAVFTDAPSWAFYMFMLAGIPAYFGFFFSLSMARAQQDSQ', 'protein production', 'failed'),
  ('MMGNDSYSSNRGSSRDVLSFLQNFLGGFYAKYGIEVKLVGGLSLSKFYYAFDAERNQFLARHFLPVLSYIKKDFNARAALGIVNVDIYEPGFNFIFGLAHPGLKVAVVSLYRLYPEFYGNPPDRKLLKERALKEVMHELGHVFGLGHCPNPKCVMHFSNSIIDTDIKSWMYCESCLRKLEKNLARSHVLEHHHHHH', 'protein production', 'failed'),
  ('MFITTEGINAGYTIKDVVEATSSLMLASEDIDKYNMFDQLFDEAKQKLKKKADLLEGDGIIGLKYNTEVVEVNGAPKFLVVHGYGTVILIDK', 'protein production', 'not failed');
